// data source = ChEMBL document CHEMBL1125732

assayed_system: GABA-A receptor; anion channel (Mus musculus) (UniProt Q8BHJ7+P26048+Q8QZW7+P50571+Q9R0Y8+P22723+A2AMW3+P62812+Q9JLF1+P26049+P22933+Q9D6F4+P63080+P27681+P16305)
test_description: In vivo percentage inhibition of flunitrazepam binding to Benzodiazepine receptor in mouse fore brain at 30 mg/Kg.
Type: organism-based
Label not fulfilled if inhibition falls below 60%; label fulfilled in every other case.

Please tell me: is the compound Oc1nc2ccc(Cl)cc2c2nc(-c3ccccc3)nn12 at or over 60% in terms of inhibition?
fulfilled

Would you kindly repeat that for CCOc1nc2c3ccccc3nc(O)n2n1 ?
not fulfilled

Would you kindly repeat that for Oc1nc2ccccc2c2nc(-c3ccccc3F)nn12 ?
not fulfilled

Would you kindly repeat that for Oc1nc2ccc(Cl)cc2c2nc(Cc3ccccc3)nn12 ?
not fulfilled

Would you kindly repeat that for Cc1ccc(-c2nc3c4cc(Cl)ccc4nc(O)n3n2)cc1 ?
fulfilled

Would you kindly repeat that for Oc1nc2ccc(Cl)cc2c2nc(-c3cccc(F)c3)nn12 ?
not fulfilled

Would you kindly repeat that for Oc1nc2ccccc2c2nc(-c3ccccc3)nn12 ?
not fulfilled

====

Can you tell me IC50 for the items I'm about to list?
assayed_system: GABA-A receptor; anion channel
test_description: Binding affinity at Benzodiazepine receptor of rat forebrain by [3H]- flunitrazepam displacement.
Output spec: scalar in nM, unitless text.

Query the reported IC50 for GABA-A receptor; anion channel; item: Oc1nc2ccc(Cl)cc2c2nc(-c3cccs3)nn12
0.6

Would you kindly repeat that for Oc1nc2ccc(Cl)cc2c2nc(-c3ccco3)nn12 ?
0.6

Would you kindly repeat that for Oc1nc2ccc(Cl)cc2c2nc(-c3ccccc3)nn12 ?
8

Would you kindly repeat that for CCOc1nc2c3ccccc3nc(O)n2n1 ?
2.5

Would you kindly repeat that for Oc1nc2ccc(Cl)cc2c2nc(-c3cccc(F)c3)nn12 ?
4

====

Can you tell me pIC50 for the items I'm about to list?
assayed_system: GABA-A receptor; anion channel
test_description: Displacement of [3H]diazepam from GABA-A Benzodiazepine receptor of rat forebrain
On this scale, pIC50 is minus log10 of a concentration expressed in M (mol/L).

Looking for the measured pIC50 of O=C1C2C=Nc3ccccc3C2=NN1c1ccccc1 (configuration not stated) [CGS-8216] , can you help?
9.52

Would you kindly repeat that for CN1C(=O)CN=C(c2ccccc2F)c2cc([N+](=O)[O-])ccc21 [FLUNITRAZEPAM] ?
8.82

====

assayed_system: GABA-A receptor; anion channel (Mus musculus) (UniProt Q8BHJ7+P26048+Q8QZW7+P50571+Q9R0Y8+P22723+A2AMW3+P62812+Q9JLF1+P26049+P22933+Q9D6F4+P63080+P27681+P16305)
test_description: In vivo percentage inhibition of flunitrazepam binding to Benzodiazepine receptor in mouse fore brain at 30 mg/Kg.
Type: organism-based
experimental_readout: inhibition

Looking for the measured inhibition of Oc1nc2ccc(Cl)cc2c2nc(-c3ccco3)nn12 , can you help?
15%

Would you kindly repeat that for Oc1nc2ccc(Cl)cc2c2nc(-c3cccs3)nn12 ?
21%

Would you kindly repeat that for Oc1nc2ccc(Cl)cc2c2nc(-c3ccc(F)cc3)nn12 ?
52%

Would you kindly repeat that for Cn1c(=O)n2nc(-c3ccccc3)nc2c2ccccc21 ?
55%

Would you kindly repeat that for Oc1nc2ccc(Cl)cc2c2nc(-c3ccccc3F)nn12 ?
76%

Would you kindly repeat that for Oc1ccc(-c2nc3c4cc(Cl)ccc4nc(O)n3n2)cc1 ?
0%

Would you kindly repeat that for Oc1nc2ccc(Cl)cc2c2nc(-c3cccnc3)nn12 ?
24%

Would you kindly repeat that for Oc1nc2ccccc2c2nc(-c3cccnc3)nn12 ?
48%

Would you kindly repeat that for Oc1nc2ccccc2c2nc(-c3ccncc3)nn12 ?
19%

Would you kindly repeat that for OCc1nc2c3ccccc3nc(O)n2n1 ?
0%

Would you kindly repeat that for Oc1nc2c(Cl)cc(Cl)cc2c2nc(-c3ccccc3)nn12 ?
6%

====

assayed_system: GABA-A receptor; anion channel
test_description: Displacement of [3H]flunitrazepam from GABA-A Benzodiazepine receptor of rat forebrain
experimental_readout: IC50 (nM)
Output spec: scalar in nM, unitless text.

Looking for the measured IC50 of O=C1C2C=Nc3ccccc3C2=NN1c1ccccc1 (stereo unspecified) , can you help?
4.4

====

assayed_system: GABA-A receptor; anion channel
test_description: Binding affinity at Benzodiazepine receptor of rat forebrain by [3H]- flunitrazepam displacement.
IC50 vs 3 nM: less than gives criterion met; not less than gives criterion not met.

Determine whether this compound shows IC50 lower than 3 nM (ties excluded): Oc1nc2ccc(Cl)cc2c2nc(-c3ccc(C(F)(F)F)cc3)nn12
criterion not met

Would you kindly repeat that for Oc1nc2ccc(Cl)cc2c2nc(Cc3ccccc3)nn12 ?
criterion not met

Would you kindly repeat that for CN1CCCC(c2nc3c4cc(Cl)ccc4nc(O)n3n2)C1 (configuration not stated) ?
criterion not met

Would you kindly repeat that for Oc1nc2ccc(Cl)cc2c2nc(-c3ccoc3)nn12 ?
criterion not met

Would you kindly repeat that for Oc1nc2ccc(Cl)cc2c2nc(-c3ccccc3F)nn12 ?
criterion met

Would you kindly repeat that for Oc1nc2ccc(Cl)cc2c2nc(C3CCCO3)nn12 (configuration not stated) ?
criterion not met

Would you kindly repeat that for Oc1nc2ccccc2c2nc(-c3ccccc3F)nn12 ?
criterion met

Would you kindly repeat that for Cc1ccc(-c2nc3c4cc(Cl)ccc4nc(O)n3n2)cc1 ?
criterion not met

Would you kindly repeat that for OCc1nc2c3ccccc3nc(O)n2n1 ?
criterion not met

Would you kindly repeat that for Oc1nc2ccc(Cl)cc2c2nc(-c3ccc(F)cc3)nn12 ?
criterion not met

Would you kindly repeat that for Oc1ccc(-c2nc3c4cc(Cl)ccc4nc(O)n3n2)cc1 ?
criterion met

====

assayed_system: GABA-A receptor; anion channel
test_description: Displacement of [3H]- Diazepam from GABA-A Benzodiazepine receptor of rat forebrain
pIC50: −log10 of the molar value.
Label condition not met if pIC50 falls below 7; label condition met in every other case.

Please tell me: is the molecule Cn1c(=O)n2nc(-c3ccccc3)nc2c2ccccc21 at or over 7 in terms of pIC50?
condition not met

Would you kindly repeat that for O=c1[nH]c2ccccc2c2nc(-c3ccncc3)nn12 ?
condition not met

Would you kindly repeat that for Oc1nc2ccccc2c2nc(C(F)(F)F)nn12 ?
condition not met

Would you kindly repeat that for Oc1nc2ccccc2c2nc(-c3ccccc3)nn12 ?
condition met

Would you kindly repeat that for Oc1nc2ccccc2c2nc(-c3ccc(Cl)cc3)nn12 ?
condition not met

Would you kindly repeat that for Oc1nc2ccc(Cl)cc2c2nc(-c3cccnc3)nn12 ?
condition met

Would you kindly repeat that for Cn1c(=O)n2nc(-c3cccnc3)nc2c2ccccc21 ?
condition not met

Would you kindly repeat that for Cn1c(=O)n2nc(C(F)(F)F)nc2c2ccccc21 ?
condition not met

Would you kindly repeat that for Oc1nc2c(Cl)cc(Cl)cc2c2nc(-c3ccccc3)nn12 ?
condition not met
